- System: necrosis induced by ethanol containing hydrochloric acid
- assay details: Cytoprotective effect (modified Robert's test)
- Format: in vivo
- stated conditions: 10 mg/kg p.o.
metric: Bleedings, treated (mm)
Numbers only; they are read as mm.

Use the examples below as a reference point.
Cc1cc(=O)[nH]c(SCc2ccccc2N(C)C)n1 [Example 1]    62.0
COc1ccc2[nH]c([S+]([O-])Cc3ncc(C)c(OC)c3C)nc2c1 (stereo not shown) [Omeprazole, reference compound]    46.0
CN(C)c1ccccc1CSc1nc(-c2ccccc2)cc(=O)[nH]1 [Example 5]    47.6

Could you now look at the following molecule, please?
For reference, reported Bleedings, treated for CN(C)c1ccccc1C[S+]([O-])c1nc2ccccc2[nH]1 (stereo not shown) [NC-1300, reference compound] stands at 42.25
